- System: MDA-MB-231 cells
- Assay Protocol: Cell viability assay (CellTiter-Glo)
- Type: cell-based
- Condition Notes: Homo sapiens; cell viability assay with MDA-MB-231 cells
- Procedure: MDA-MB-231 cells grew in DMEM medium supplemented with 10% FCS (fetal calf serum), 1% PS (penicillin-streptomycin) and 1% L-glutamine (all from Biological Industries). Exclusion of mycoplasma contamination was monitored and conducted by test with MycoAlert™ kit (Lonza). Cells were trypsinized and counted, and 1000 cells/well were plated in 50 μl of growth medium into 384-well white TC plates (Greiner) using Multidrop™ 384 (Thermo Scientific) Washer Dispenser II. […]

- Molecule: "CC(C)(C)CN(C(=O)CCl)C1CCS(=O)(=O)C1 (centres unmarked) [Pin1-3]"
  Qual: ">"
  EC50 / µM: 25
- Molecule: "O=C(CCl)N(CC1CCCCC1)C1CCS(=O)(=O)C1 (centres unmarked) [Pin1-2-3]"
  Qual: "="
  EC50 / µM: 7.5
